# System: OVCAR-4 ovarian
# method-notes: NCI tumour cell line growth inhibition, 48 h
// reported TGI per item

Use these answered entries as a reference point.
>>> measurement("COc1cc2cc3c4c(cc(OC)c(OC)c4c2cc1OC)CCN3C(=O)CCC(=O)O")
"> 100 µM"
>>> measurement("COC(=O)C1C(O)C(C)C(O)OC1C(C)C(O)C(C)/C=C\\C=C(/C)C(=O)Nc1c(C)c(OC(C)=O)c2c(c1O)C(=O)C(C)=C1OCOC(/C(C)=C/C(C)=O)=C12 (stereo unspecified)")
"23 µM"
>>> measurement("NC(=O)C1CCCN1C(=O)N(CCCl)N=O (stereo unspecified)")
"> 100 µM"
>>> measurement("CC12CC(Sc3ccccc3N1)c1ccccc1O2 (stereo unspecified)")
"31.2 µM"
>>> measurement("NC(=O)CNC(=O)[C@@H]1C[C@@H](OCCC(=O)O)CN1C(=O)OCc1ccccc1")
"> 100 µM"

TGI in this record for O=C(c1ccccc1)c1nn(-c2ccccc2)c2nc3nc(-c4ccccc4)cc(=O)n3nc12 : 68.4 µM

Hey, just so you know, these numbers are from PubChem BioAssay (NCI).
